Source listed as patent US20060116368A1.

- tested-system: Human Vanilloid Receptor 1 (Homo sapiens)
- Construct: expressed in transfected cells; host or cells: HEK 293
- assay-procedure: Human VR1 functional assay using FLIPR, Protocol 2
- Type: cell-based
- run-parameters: 1 uM, inhibition of capsaicin (EC80)-induced calcium response, HEK 293 stably transfected hVR1
assay-metric: h % I (1 uM) (%)
Write the value in % as a bare number.

compound: COC(=O)CC1Oc2ccc(NC(=O)C3CCN(c4cc(F)c(F)c(F)c4)CC3)cc2NC1=O (stereo not shown) [Example 179]
unit-tag: %
h % I (1 uM): 54

compound: CCOC(=O)C1(C)Oc2ccc(NC(=O)C3CCN(c4cc(F)c(F)c(F)c4)CC3)cc2NC1=O (stereo not shown) [Example 175]
unit-tag: %
h % I (1 uM): 54

compound: O=C1COc2cc(NC(=O)C3CCN(c4cc(F)c(F)c(F)c4)CC3)ccc2N1 [Example 170]
unit-tag: %
h % I (1 uM): 55

Lookup: Sample O=C1CSc2ccc(NC(=O)C3CCN(c4cc(F)c(F)c(F)c4)CC3)cc2N1 [Example 173] — what was its h % I (1 uM)?
Found: 37

---

- tested-system: Human Vanilloid Receptor 1 (Homo sapiens, UniProt Q8NER1)
- Construct: expressed in transfected cells; host or cells: HEK 293
- Sequence (Q8NER1 whole entry): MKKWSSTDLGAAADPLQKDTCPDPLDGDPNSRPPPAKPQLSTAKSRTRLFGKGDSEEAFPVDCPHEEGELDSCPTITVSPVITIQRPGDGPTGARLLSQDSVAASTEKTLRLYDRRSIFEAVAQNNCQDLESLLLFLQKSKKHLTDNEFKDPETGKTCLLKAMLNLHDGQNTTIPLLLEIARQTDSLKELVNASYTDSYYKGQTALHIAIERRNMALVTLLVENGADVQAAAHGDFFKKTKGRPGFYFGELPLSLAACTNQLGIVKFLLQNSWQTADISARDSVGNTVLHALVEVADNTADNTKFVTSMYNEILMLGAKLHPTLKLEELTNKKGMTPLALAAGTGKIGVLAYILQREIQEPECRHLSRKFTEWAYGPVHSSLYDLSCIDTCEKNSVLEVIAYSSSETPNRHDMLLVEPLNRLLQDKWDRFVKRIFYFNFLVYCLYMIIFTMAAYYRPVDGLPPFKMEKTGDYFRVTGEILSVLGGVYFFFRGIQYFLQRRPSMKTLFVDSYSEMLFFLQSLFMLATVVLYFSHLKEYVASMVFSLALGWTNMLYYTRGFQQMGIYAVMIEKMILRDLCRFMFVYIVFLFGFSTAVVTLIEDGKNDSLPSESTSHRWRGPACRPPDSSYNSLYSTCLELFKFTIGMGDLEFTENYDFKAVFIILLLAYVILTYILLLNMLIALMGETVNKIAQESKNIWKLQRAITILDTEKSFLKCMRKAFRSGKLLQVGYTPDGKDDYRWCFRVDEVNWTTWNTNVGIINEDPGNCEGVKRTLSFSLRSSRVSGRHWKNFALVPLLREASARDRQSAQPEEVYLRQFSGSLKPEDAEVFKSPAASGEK
- assay-procedure: Human VR1 functional assay using FLIPR, Protocol 2
- Format: cell-based
- run-parameters: 1 uM, inhibition of capsaicin (EC80)-induced calcium response, HEK 293 stably transfected hVR1
Catalogue of h % I (1 uM) readings, one per entry.
Write the value in % as a bare number.

// worked examples, h % I (1 uM) included
molecule: O=C(O)CC1Oc2ccc(NC(=O)C3CCN(c4cc(F)c(F)c(F)c4)CC3)cc2NC1=O (stereo not drawn)
tested-system: Human Vanilloid Receptor 1 (Homo sapiens, UniProt Q8NER1)
assay-metric: h % I (1 uM)
numeric-value: 5
//
molecule: O=C1COc2cccc(NC(=O)C3CCN(c4cc(F)c(F)c(F)c4)CC3)c2N1
tested-system: Human Vanilloid Receptor 1 (Homo sapiens, UniProt Q8NER1)
assay-metric: h % I (1 uM)
numeric-value: 9

Now let's try a different one.
Lookup: Sample O=C(Nc1ccc2c(c1)NC(=O)C(CCO)O2)C1CCN(c2cc(F)c(F)c(F)c2)CC1 (stereo not drawn) — what was its h % I (1 uM)?
Found: 99

---

Catalogue of Ki readings, one per entry.
- tested-system: UniProt:Q8NER1
Write the value in nM as a bare number.

smi: O=C1COc2ccc(NC(=O)C3CCN(c4cccc(F)c4)CC3)cc2N1
Ki (nM): 84

Lookup: Which Ki is reported with UniProt:Q8NER1 for this entry: O=C1COc2ccc(NC(=O)C3CCN(c4ccccc4Br)CC3)cc2N1 ?
Found: 71

Lookup: How about this compound: CC(C)(C)c1ccc(N2CCC(C(=O)Nc3ccc4c(c3)NC(=O)CO4)CC2)cc1
Found: 132

Lookup: How about this compound: O=C1COc2ccc(NC(=O)C3CCN(c4cccc(C(F)(F)F)c4)CC3)cc2N1
Found: 65

---

- tested-system: Human Vanilloid Receptor 1 (Homo sapiens, UniProt Q8NER1)
- Construct: expressed in transfected cells; host or cells: HEK 293
- assay-procedure: Human VR1 functional assay using FLIPR, Protocol 2
- Assay type: cell-based
- run-parameters: decreased capsaicin (EC80)-induced calcium response, HEK 293 stably transfected hVR1, read-out: h IC50
assay-metric: pIC50
In textbook form, pIC50 equals minus log to base ten of the concentration in mol/L.

// worked examples, pIC50 included
molecule: COC(=O)CC1Oc2ccc(NC(=O)C3CCN(c4cc(F)c(F)c(F)c4)CC3)cc2NC1=O (centres unmarked)
tested-system: Human Vanilloid Receptor 1 (Homo sapiens, UniProt Q8NER1)
pIC50: 6.05
//
molecule: O=C1COc2cc(NC(=O)C3CCN(c4cc(F)c(F)c(F)c4)CC3)ccc2N1
tested-system: Human Vanilloid Receptor 1 (Homo sapiens, UniProt Q8NER1)
pIC50: 6.13

Lookup: Sample O=C1CSc2ccc(NC(=O)C3CCN(c4cc(F)c(F)c(F)c4)CC3)cc2N1 — what was its pIC50?
Found: 5.71

Lookup: How about this molecule: O=C(Nc1ccc2c(c1)NC(=O)C(CCO)O2)C1CCN(c2cc(F)c(F)c(F)c2)CC1 (centres unmarked)
Found: 8.32

Lookup: How about this molecule: CCOC(=O)C1(C)Oc2ccc(NC(=O)C3CCN(c4cc(F)c(F)c(F)c4)CC3)cc2NC1=O (centres unmarked)
Found: 6.06
